All values here come from patent US20100260765A1.

TESTED_ON: KDR (human, UniProt P35968 20-1356)
Sequence (P35968 20-1356): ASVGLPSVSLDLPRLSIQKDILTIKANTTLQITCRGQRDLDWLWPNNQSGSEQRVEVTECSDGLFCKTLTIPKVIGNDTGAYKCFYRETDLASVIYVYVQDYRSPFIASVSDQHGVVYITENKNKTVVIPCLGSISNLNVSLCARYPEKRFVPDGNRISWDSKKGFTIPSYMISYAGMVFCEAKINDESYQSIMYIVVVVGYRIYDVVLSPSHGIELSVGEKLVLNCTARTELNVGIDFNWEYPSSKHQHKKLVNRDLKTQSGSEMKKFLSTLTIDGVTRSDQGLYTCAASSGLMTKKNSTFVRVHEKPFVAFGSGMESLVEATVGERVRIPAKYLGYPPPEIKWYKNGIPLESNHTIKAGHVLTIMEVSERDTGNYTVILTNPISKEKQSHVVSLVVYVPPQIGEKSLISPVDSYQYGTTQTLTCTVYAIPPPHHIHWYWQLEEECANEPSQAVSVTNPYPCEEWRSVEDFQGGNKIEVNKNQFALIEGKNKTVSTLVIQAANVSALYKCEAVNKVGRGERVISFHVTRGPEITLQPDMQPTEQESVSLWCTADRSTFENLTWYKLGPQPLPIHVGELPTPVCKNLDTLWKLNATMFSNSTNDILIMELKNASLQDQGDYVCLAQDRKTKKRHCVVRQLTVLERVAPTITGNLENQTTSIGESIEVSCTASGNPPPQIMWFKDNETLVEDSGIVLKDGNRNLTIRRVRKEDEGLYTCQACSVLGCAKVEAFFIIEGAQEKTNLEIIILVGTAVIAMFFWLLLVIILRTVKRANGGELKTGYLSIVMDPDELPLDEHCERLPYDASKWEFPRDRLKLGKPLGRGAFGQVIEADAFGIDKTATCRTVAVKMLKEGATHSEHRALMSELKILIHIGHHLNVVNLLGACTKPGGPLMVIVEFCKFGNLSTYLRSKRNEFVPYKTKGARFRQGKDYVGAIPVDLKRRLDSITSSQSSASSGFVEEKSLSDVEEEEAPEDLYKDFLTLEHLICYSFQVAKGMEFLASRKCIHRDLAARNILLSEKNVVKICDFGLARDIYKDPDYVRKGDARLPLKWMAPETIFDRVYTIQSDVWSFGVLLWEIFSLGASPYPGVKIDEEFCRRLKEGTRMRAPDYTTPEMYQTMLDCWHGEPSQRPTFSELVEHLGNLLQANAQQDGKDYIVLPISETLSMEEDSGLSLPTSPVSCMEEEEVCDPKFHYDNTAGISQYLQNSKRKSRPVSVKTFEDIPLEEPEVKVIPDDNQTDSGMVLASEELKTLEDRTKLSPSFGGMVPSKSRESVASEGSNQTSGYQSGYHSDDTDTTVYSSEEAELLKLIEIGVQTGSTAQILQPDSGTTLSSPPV
ASSAY_METHOD_TEXT: cell-based or functional assay
Below is a list of entries, each paired with its recorded Activity at 133 nM Antibody Concentration (% Survival Inhibition), Average value.
PROPERTY_LABEL: Activity at 133 nM Antibody Concentration (% Survival Inhibition), Average

- BINDER: "21H6 (antibody, V domains shown) VH: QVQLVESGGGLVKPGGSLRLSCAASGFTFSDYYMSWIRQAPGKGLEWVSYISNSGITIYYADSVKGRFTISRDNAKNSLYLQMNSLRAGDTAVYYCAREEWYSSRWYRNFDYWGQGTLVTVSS VL: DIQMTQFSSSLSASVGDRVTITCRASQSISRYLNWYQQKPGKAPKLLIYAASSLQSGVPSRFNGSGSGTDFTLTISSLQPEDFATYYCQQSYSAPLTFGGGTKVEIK"
  RECORDED_VALUE: "91%"
- BINDER: "27A3 (antibody, V domains shown) VH: QLQLQESGPGLVKPSETLSLTCTVSGGSISSRSDYWGWIRQPPGKGLEWIGTIYYSGDTYYNPSLKSRVTISVDTSKNQFSLKLSSVTAADTAVYYCARQQLVLYYFDYWGQGTLVTVSS VL: EIVLTQSPGTLSLSPGERATLSCRASQSVSSSYLAWYQQKPGQAPRLLIYATSNRATGIPDRFSGSGSGTDFTLTISRLEPEDFAVYYCQQHGSSPPLTFGGGTKVEIK"
  RECORDED_VALUE: "83%"
- BINDER: "33D5 (antibody, V domains shown) VH: QVQLVQSGAEVKKPGASVKVSCKASGYTFGSYDINWVRQATGQGLEWMGWMNPNSGNTGYAQKFQGRVTLTRNTSIRTVYMELSSLRSEDTAVYYCARGGYSNLGWFDPWGQGSLVTVSS VL: DIQMTQSPSSVSVSVGDRVTITCRASQGISSWLAWYQQKPGKAPKLLIYAASSLQSGVPSRFSGSGSGTDFTLTISSLQPEDFATYYCQQANSFPFTFGPGTKVDIK"
  RECORDED_VALUE: "5%"
- BINDER: "24B3 (antibody, V domains shown) VH: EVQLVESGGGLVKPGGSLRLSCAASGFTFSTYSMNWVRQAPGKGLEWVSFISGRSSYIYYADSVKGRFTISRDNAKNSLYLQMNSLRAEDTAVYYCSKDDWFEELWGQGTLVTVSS VL: DIQMTQSPSSLSASVGDRVTITCRASQGIRSDLGWYQQKPGKAPKRLIYATSSLQSGVPSRFSGSGSGTEFTLTISSLQPEDFATYYCLQHNRYPWTFGQGTKVEIK"
  RECORDED_VALUE: "65%"
